Species on record: Homo sapiens
Assay: Ratio of Ki for human recombinant P2Y12 in presence of HSA and AGP to Ki for human recombinant P2Y12
Lab note - cut at 2 for Ratio Ki: fulfilled if strictly below, not fulfilled if not.

# entry-smiles, assigned-category
measured = [
    ("CCc1cc2c(N3CCN(C(=O)c4ccc(-c5ccccc5)cc4)CC3)nc(NCCC(=O)O)nc2s1", "not fulfilled"),
    ("CCc1cc2c(N3CCN(C(=O)Cc4ccccc4)CC3)nc(NC(=O)NCCC(=O)O)nc2s1", "fulfilled"),
    ("CCc1cc2c(N3CCN(C(=O)c4ccc(-c5ccccc5)cc4)CC3)nc(NCCCO)nc2s1", "not fulfilled"),
    ("CCC(=O)N1CCN(c2nc(NC(=O)NCCC(=O)O)nc3sc(CC)cc23)CC1", "fulfilled"),
]

---

Biological target: P2Y purinoceptor 12 (Homo sapiens, UniProt Q9H244)
Sequence (Q9H244 whole entry): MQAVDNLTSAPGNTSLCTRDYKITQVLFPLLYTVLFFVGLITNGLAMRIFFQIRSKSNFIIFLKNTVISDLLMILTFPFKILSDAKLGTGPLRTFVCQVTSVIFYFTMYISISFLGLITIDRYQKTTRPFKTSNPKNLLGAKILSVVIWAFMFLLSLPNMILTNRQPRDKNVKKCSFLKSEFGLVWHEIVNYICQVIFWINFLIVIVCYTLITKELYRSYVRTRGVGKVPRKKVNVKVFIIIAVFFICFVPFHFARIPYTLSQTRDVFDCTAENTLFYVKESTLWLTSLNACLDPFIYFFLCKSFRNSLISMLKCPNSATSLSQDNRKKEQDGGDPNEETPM
Assay: Binding affinity to human recombinant P2Y12 receptor expressed on CHO cell membrane
Format: cell membranes
pKi: −log10 of the molar value.
We begin with a simple list: items and their reported pKi.

# molecule, pKi
measured = [
    ("CCc1cc2c(N3CCN(C(=O)c4ccc(-c5ccccc5)cc4)CC3)ncnc2s1", 7.54),
    ("CCc1cc2c(N3CCN(C(=O)Oc4cccc5ccccc45)CC3)ncnc2s1", 6.89),
    ("CCc1cc2c(N3CCN(C(=O)CCOc4ccccc4)CC3)nc(NC(=O)NCCC(=O)O)nc2s1", 6.67),
    ("CCc1cc2c(N3CCN(C(=O)CC(C)C)CC3)ncnc2s1", 5.68),
    ("CCC(=O)N1CCN(c2nc(NC(=O)NCCC(=O)O)nc3sc(CC)cc23)CC1", 6.53),
    ("CCc1cc2c(N3CCN(C(=O)c4ccc(-c5ccccc5)cc4)CC3)nc(N3[C@@H](C(N)=O)CC[C@H]3C(N)=O)nc2s1", 8.40),
    ("CCc1cc2c(N3CCN(C(=O)c4ccc(-c5ccccc5)cc4)CC3)nc(N3CCC(O)C3)nc2s1 (stereo not drawn)", 7.46),
    ("CCc1cc2c(N3CCN(C(=O)c4ccc(-c5ccccc5)cc4)CC3)nc(NCCCO)nc2s1", 7.11),
    ("CCc1cc2c(N3CCN(C(=O)c4ccc(-c5ccccc5)cc4)CC3)nc(NC[C@@H](O)CO)nc2s1", 7.72),
    ("CCc1cc2c(N3CCN(C(=O)c4ccc(-c5ccccc5)cc4)CC3)nc(N3CCCC(C(N)=O)C3)nc2s1 (stereo not drawn)", 7.51),
    ("CCc1cc2c(N3CCN(C(=O)CC(F)(F)F)CC3)ncnc2s1", 5.52),
    ("CCc1cc2c(N3CCN(C(=O)COc4cccc(OC)c4)CC3)nc(NC(=O)NCCC(=O)O)nc2s1", 6.72),
    ("CCc1cc2c(N3CCN(C(=O)c4ccc(-c5ccccc5)cc4)CC3)nc(N3CCN(C(=O)C(F)(F)F)CC3)nc2s1", 6.08),
    ("CCc1cc2c(N3CCN(C(=O)c4ccc(-c5ccccc5)cc4)CC3)nc(N3CCC(N)CC3)nc2s1", 6.62),
    ("CCc1cc2c(N3CCN(C(=O)C(C)C)CC3)nc(NC(=O)NCCC(=O)O)nc2s1", 7.44),
    ("CCc1cc2c(N3CCN(C(=O)c4ccc(-c5ccccc5)cc4)CC3)nc(N3CC(O)C3)nc2s1", 7.57),
    ("CCc1cc2c(N3CCN(C(=O)CC(F)(F)F)CC3)nc(NC(=O)NCCC(=O)O)nc2s1", 6.75),
    ("CCc1cc2c(N3CCN(C(=O)c4ccc(-c5ccccc5)cc4)CC3)nc(NCCO)nc2s1", 7.43),
]

The measurements presented in this section are drawn from ChEMBL document CHEMBL1156059.
